Origin of values: the supplement of paper PMC10065799

Listed here: items and their measured SH2 binding enrichment.
- targetOrTestSystem: SHP2-C SH2
- experimentDescription: SH2 binding enrichment of the phosphorylated peptide, bacterial display (enrichment ratio); higher = better substrate or ligand; peptides without Tyr show the background
Please reply with the number alone, leaving off any unit.

What SH2 binding enrichment appears in the records for this sequence with SHP2-C SH2? RRGTRYMFSRP [RPL21_Y13]
0.746

Fill in the recorded SH2 binding enrichment for this sequence, with SHP2-C SH2 as test system: QYKDKYLAKHN [CASK_Y712]
0.798

Tell me reported SH2 binding enrichment for PFRFIYMAVQH [PTPN11_Y515_Q510P_YF] , tested with SHP2-C SH2.
1.02

Reported SH2 binding enrichment for SHP2-C SH2, given RDEHGYISRCF [HSPB1_Y133_Q128R] ?
0.455

Tell me reported SH2 binding enrichment for KLVRLYAVVTR [LYN_Y306] , tested with SHP2-C SH2.
2.41

Param readout= SH2 binding enrichment; system= SHP2-C SH2; entry= VDGSVYELHPS [GCK_Y413_K414E] ; returns value.
1.01

For the record GLDSSYLLRDS [SH2D1A_Y29_G27S] , what value of SH2 binding enrichment is listed for SHP2-C SH2?
0.64

Lab note: need SH2 binding enrichment with SHP2-C SH2 for entry YGSGNYNVFGN [HNRNPA2B1_Y300_D302V] , please look it up.
0.673

Request body: readout SH2 binding enrichment, system SHP2-C SH2, query IEDPYYGNDFD [ACP1_Y133_S137F] . Return the value.
0.617

Observed SH2 binding enrichment on SHP2-C SH2 for CSSGGYEPRGR [FUS_Y239_R234C] , please.
0.654

Find SH2 binding enrichment (SHP2-C SH2) for the entry FKGKKYKPLDL [RPL35_Y78_YF]
0.571

GET /values?readout=SH2 binding enrichment&system=SHP2-C SH2&item= QLQVFYATRDQ [MIPEP_Y579_L582R];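 also: peptide library displayed on the E. coli surface as eCPX fusions, selected cells deep-sequenced, score is each peptide's frequency after selection divided by its frequency in the input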
1.25

Record LDLPGYCPLRE [CCDC116_Y291] : what is its SH2 binding enrichment with SHP2-C SH2?
0.736

Short answer please: SH2 binding enrichment, SHP2-C SH2, entry GRRNTYFASIA [ACADM_Y352_YF]
0.528
